# assay.info: Plasma protein binding by equilibrium dialysis
# Assay type: in vitro ADME, mouse
# condition: CD1, pooled mouse plasma, pH 7.4; concentration 10 μM, mouse plasma

- compound: "CN1Cc2cc(-c3ccc(-c4cncc(NS(=O)(=O)c5ccccc5[N+](=O)[O-])c4)s3)ccc2C1=O [Compound 1]"
  fraction unbound at 6 h, 10 μM: 0.002

----------
# assay.info: Mouse plasma pharmacokinetics
# Assay type: in vivo
# condition: male, C57BL/6, ip; mouse plasma; 10 mg/kg intraperitoneal
measured.endpoint: Cmax (µM)

- compound: "O=C1NCc2ccc(-c3ccc(-c4cncc(NS(=O)(=O)c5ccc(F)cc5F)c4)s3)cc21"
  measured.endpoint: "Cmax"
  result.unit: "µM"
  endpoint.value: 235

----------
# assay.info: Plasma protein binding by equilibrium dialysis
# Format: in vitro ADME, mouse
# condition: CD1, pH 7.4; mouse plasma, 10 μM, equilibrium dialysis
Response key: label 1 means fraction unbound at 6 h, 10 μM >= 0.002; label 0 means fraction unbound at 6 h, 10 μM < 0.002.

- compound: "CN1Cc2cc(-c3ccc(-c4cnc(F)c(NS(=O)(=O)c5ccc(F)cc5F)c4)s3)ccc2C1=O"
  label.class: "label 0"
- compound: "CN1Cc2cc(-c3ccc(-c4cncc(NS(=O)(=O)c5c(F)cc(F)cc5F)c4)s3)ccc2C1=O"
  label.class: "label 1"
- compound: "CN1Cc2cc(-c3ccc(-c4cnc(Cl)c(NS(=O)(=O)c5ccc(F)cc5F)c4)s3)ccc2C1=O"
  label.class: "label 0"
- compound: "CN1Cc2cc(-c3ccc(-c4cncc(NS(=O)(=O)c5ccc(C#N)cc5)c4)s3)ccc2C1=O"
  label.class: "label 1"
- compound: "CN1Cc2cc(-c3ccc(-c4cncc(NS(=O)(=O)c5ccc([N+](=O)[O-])cc5)c4)s3)ccc2C1=O"
  label.class: "label 1"

----------
# assay.info: Mouse plasma pharmacokinetics
# Format: in vivo
# condition: male, mouse, ip; 10 mg/kg single i.p. dose, C57BL/6 mice, plasma; read-out: T1/2 (converted)

- compound: "CN1Cc2cc(-c3ccc(-c4cncc(NS(=O)(=O)c5ccccc5[N+](=O)[O-])c4)s3)ccc2C1=O"
  half-life: "2.38 h"

----------
# System: perforin-dependent cytotoxicity of KHYG-1 NK cells on K562 target cells
# assay.info: KHYG-1 cytotoxicity assay (51Cr-labeled K562 target cells)
# Type: cell-based
# condition: Homo sapiens; concentration inhibiting 90% of perforin-dependent cytotoxicity; K562 targets, effector/target 2:1, 4 h, RPMI 0.1% BSA; read-out: KHYG-1 IC90
Reported IC90 by item:

- compound: "CN1Cc2cc(-c3ccc(-c4cncc(NS(=O)(=O)c5ccc(F)cc5F)c4)s3)ccc2C1=O [Compound 3]"
  IC90, µM: 16
- compound: "O=C1NCc2ccc(-c3ccc(-c4cncc(NS(=O)(=O)c5ccc(F)cc5F)c4)s3)cc21 [Compound 7]"
  IC90, µM: 28.9
- compound: "CN1Cc2cc(-c3ccc(-c4cncc(NS(=O)(=O)c5ccc(C#N)cc5)c4)s3)ccc2C1=O [Compound 6]"
  IC90, µM: 30.9
- compound: "CN1Cc2cc(-c3ccc(-c4cncc(NS(=O)(=O)c5ccccc5[N+](=O)[O-])c4)s3)ccc2C1=O [Compound 1]"
  IC90, µM: 5.37
- compound: "CN1Cc2cc(-c3ccc(-c4cncc(NS(=O)(=O)c5c(F)cc(F)cc5F)c4)s3)ccc2C1=O [Compound 5]"
  IC90, µM: 10.1
- compound: "CN1Cc2cc(-c3ccc(-c4cncc(NS(=O)(=O)c5ccc([N+](=O)[O-])cc5)c4)s3)ccc2C1=O [Compound 4]"
  IC90, µM: 19.9
- compound: "CN1Cc2cc(-c3ccc(-c4cnc(Cl)c(NS(=O)(=O)c5ccc(F)cc5F)c4)s3)ccc2C1=O [Compound 9]"
  IC90, µM: 1.86
- compound: "CN1Cc2cc(-c3ccc(-c4cnc(F)c(NS(=O)(=O)c5ccc(F)cc5F)c4)s3)ccc2C1=O [Compound 8]"
  IC90, µM: 3.54
